# system tested: Anti-CD28 scFv (VH - linker 1 - VL) (biotinylated (site not stated))
# Sequence (scFv, as listed by the source): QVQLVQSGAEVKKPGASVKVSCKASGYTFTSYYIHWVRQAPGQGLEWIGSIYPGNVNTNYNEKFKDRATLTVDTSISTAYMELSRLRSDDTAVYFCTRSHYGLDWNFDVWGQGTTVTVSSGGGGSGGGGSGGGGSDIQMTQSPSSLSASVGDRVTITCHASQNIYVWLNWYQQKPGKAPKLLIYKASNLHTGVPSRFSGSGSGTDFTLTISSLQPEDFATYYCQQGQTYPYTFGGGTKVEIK
# assay summary: clonal phage ELISA; biotinylated anti-CD28 scFv on neutravidin plate, bound phage detected with anti-M13 HRP
outcome measure: CD28 scFv signal
Answers are plain numbers.

Past entries and their recorded results:
MVDCPLISFDECLA (Clone of the Peptide-9 optimisation library) [Phage-449] ... 0.07
MDWCPRDRWDVCYY (Clone of the Peptide-9 optimisation library) [Phage-447] ... 0.074
MDWCPMTRWNDCYF (Clone of the Peptide-9 optimisation library) [Phage-443] ... 0.671
MDWCPRARWHDCFF (Clone of the Peptide-9 optimisation library) [Phage-445] ... 0.497
MDWCPSDYWYVCFA (Clone of the Peptide-9 optimisation library) [Phage-453] ... 0.707
MDWCPRFWWHECYA (Clone of the Peptide-9 optimisation library) [Phage-451] ... 2.4
EDWCPTDVWPYCFS (Clone of the Peptide-9 optimisation library) [Phage-450] ... 0.711
MDWCPRDWWHMCFN (Clone of the Peptide-9 optimisation library) [Phage-452] ... 2.12
MAWCPWASFDECLA (Clone of the Peptide-9 optimisation library) [Phage-448] ... 0.089
MDWCPRDRWDDCFN (Clone of the Peptide-9 optimisation library) [Phage-446] ... 0.45

Which value of CD28 scFv signal has been reported for IYWCPIDRWNDCYN (Clone of the Peptide-9 optimisation library) [Phage-442] in the records?
0.867
